Origin of the recorded values: ChEMBL document CHEMBL2407043

Experiment: Elimination half life in dog
Format: ADME, organism-based, Canis lupus familiaris
Settings: in vivo, read-out: beta t1/2 (converted)
quantity measured: half-life (h)
# value in h; strip the unit string

C[C@]1(CS(=O)(=O)N2CCN(c3ncc(OCc4cccc(C#N)c4)cn3)CC2)NC(=O)NC1=O has a reported half-life of 5.4

====

Test: Clearance in rat at 2 mg/kg, iv
Assay type: ADME, organism-based
Parameters: dose 2 mg/kg, route intravenous
Conditions: in vivo
Catalogue of log10(clearance) values
Quick note: numbers are log10 of clearance, with mL/min/kg as the unit.

Recorded log10(clearance), per entry:
Cc1cc(COc2cnc(N3CCN(S(=O)(=O)C[C@@]4(C)NC(=O)NC4=O)CC3)nc2)on1 ... 1.13
C[C@]1(CS(=O)(=O)N2CCN(c3ncc(OCc4ccc(C(F)(F)F)o4)cn3)CC2)NC(=O)NC1=O ... 0.80
C[C@]1(CS(=O)(=O)N2CCN(c3ncc(OCc4cccc(C#N)c4)cn3)CC2)NC(=O)NC1=O ... 1.26

For C[C@]1(CS(=O)(=O)N2CCN(c3ncc(OCc4cnc(C#N)s4)cn3)CC2)NC(=O)NC1=O the molecule record lists log10(clearance) as 1.99

Reported log10(clearance) ( C[C@]1(CS(=O)(=O)N2CCN(c3ncc(OCc4cc(C(F)(F)F)no4)cn3)CC2)NC(=O)NC1=O ) = 0.97

Noted for C[C@]1(CS(=O)(=O)N2CCN(c3ncc(OCc4ccc(F)cc4)cn3)CC2)NC(=O)NC1=O : its log10(clearance) reads 0.68

====

Listing of entries alongside the reported bioavailability.
Experiment: Oral bioavailability in rat at 3 to 10 mg/kg
Assay type: ADME, organism-based
Conditions: in vivo
Numbers only here, please. The scale is %.

According to the records, this compound Cc1cc(COc2cnc(N3CCN(S(=O)(=O)C[C@@]4(C)NC(=O)NC4=O)CC3)nc2)on1 displays bioavailability of 37

The compound C[C@]1(CS(=O)(=O)N2CCN(c3ncc(OCc4ccc(C(F)(F)F)o4)cn3)CC2)NC(=O)NC1=O showed bioavailability equal to 100

Short answer for C[C@]1(CS(=O)(=O)N2CCN(c3ncc(OCc4cnc(C#N)s4)cn3)CC2)NC(=O)NC1=O : bioavailability was 6

Input C[C@]1(CS(=O)(=O)N2CCN(c3ncc(OCc4cccc(C#N)c4)cn3)CC2)NC(=O)NC1=O . Output bioavailability: 51

====

Assay: Clearance in dog at 0.5 mg/kg, iv and 1 mg/kg, po
Type: ADME, organism-based, Canis lupus familiaris
Settings: in vivo
quantity measured: clearance (mL/min/kg)
Enter your answer as a number in mL/min/kg; do not include the unit.

Example results:
C[C@]1(CS(=O)(=O)N2CCN(c3ncc(OCc4ccc(C(F)(F)F)o4)cn3)CC2)NC(=O)NC1=O ... 1.3
C[C@]1(CS(=O)(=O)N2CCC(Oc3ccc(OCc4ccccn4)cc3)CC2)NC(=O)NC1=O ... 3

Continue with the molecule presented below.
Kindly note the recorded clearance for C[C@]1(CS(=O)(=O)N2CCC(Oc3ccc(OC(F)(F)C(F)F)cc3)CC2)NC(=O)NC1=O , which is 0.2

====

Assay: Intrinsic clearance in rat liver microsomes
Format: ADME, Microsome
Details: read-out: CLH
quantity measured: microsomal CLint

# microsomal CLint (compound: C[C@]1(CS(=O)(=O)N2CCC(Oc3ccc(C(F)(F)F)cc3)CC2)NC(=O)NC1=O ) is < 10 µL/min/mg
